# System: PPARg homodimer (NR concentration 180 nM)
# experimental_details: PBM binding z-score (relative to random genomic background probes); higher = stronger binding; sequences stand for … in GC…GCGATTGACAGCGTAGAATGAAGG
Entries and their PBM binding z-score values follow.

Known PBM binding z-score results, listed for orientation:
>>> result("CGAACTAGGTCACCCAGGACAGTGAATACATTGA")
2.12
>>> result("CAAACAAGGTCACGAAAGGTCAAAGTCGAATGAC")
8.44
>>> result("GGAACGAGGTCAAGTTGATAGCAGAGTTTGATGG")
3.81

Param item = CCTTACGGGTCACTCCAGGTTATATCATCGGAGT ; retrieve measured PBM binding z-score.
1.62

Param item = ACTTAGGGGTCAACGAGGTTATAGCACGCGTATA ; retrieve measured PBM binding z-score.
3.01

Param item = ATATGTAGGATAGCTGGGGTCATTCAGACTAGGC ; retrieve measured PBM binding z-score.
5.47

Param item = CGTCAAAGTTCAAGGTCACGTAACAGAAAGCAGC ; retrieve measured PBM binding z-score.
4.73

Param item = CCTACTGGGCCTAAGGTCATTGATTCCAATGCTC ; retrieve measured PBM binding z-score.
2.07

---

# System: THRa:RXRa (NR concentration 90 nM, RXRa partner concentration 90 nM)
# experimental_details: PBM binding z-score (relative to random genomic background probes); higher = stronger binding; sequences stand for … in GC…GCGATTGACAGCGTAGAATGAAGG
readout: PBM binding z-score

>>> result("CGTCCAAGGTCATTGGAGGTCAGTGAAGACAGAT")
5.19
>>> result("CCTCGGAGGTCAACAGGAGGTCAGAGCTGCCAGA")
4.73
>>> result("AATACGGGGTCACTAGGCCAGAGTAGGTACGAAT")
4.25

Param item = CGTTCAAGGTCAAAGGTCAGTGAAGAGATGACGG ; retrieve measured PBM binding z-score.
5.04

Param item = TAGCCTAGGTCATACAGGGGCCAGTATAGAAAGC ; retrieve measured PBM binding z-score.
3.27

Param item = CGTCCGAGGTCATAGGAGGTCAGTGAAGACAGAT ; retrieve measured PBM binding z-score.
5.37

Param item = ATCTCTAGGTTAAGATAGTTCAGTGAATGCAAAT ; retrieve measured PBM binding z-score.
1.81

Param item = GCTGCTAGGTCAACTGATGGTCAACTAAAGCTCG ; retrieve measured PBM binding z-score.
2.91

Param item = ATATGTAGGTTATCTGGGGTCATTCAGACTAGGC ; retrieve measured PBM binding z-score.
5.46

Param item = AGTCAAAGTGCATCTAGGTAACGTAAGATATGCT ; retrieve measured PBM binding z-score.
1.31

Param item = CGTCCGAGGTCAAGGTCAGTGAAAGAGACTCGAA ; retrieve measured PBM binding z-score.
4.37

---

# System: RXRa homodimer (NR concentration 180 nM)
# experimental_details: PBM binding z-score (relative to random genomic background probes); higher = stronger binding; sequences stand for … in GC…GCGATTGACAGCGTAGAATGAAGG
Returns one of condition met or condition not met; condition met when PBM binding z-score is >= 3.

>>> category_label("CGTCCAAGGTCGAAGGTCAGTGAAGAGATGACGG")
"condition met"
>>> category_label("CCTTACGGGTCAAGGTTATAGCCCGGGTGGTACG")
"condition met"
>>> category_label("TAGCCTAGGTCATTCAGGGGCAAGTATAGAAAGC")
"condition met"
>>> category_label("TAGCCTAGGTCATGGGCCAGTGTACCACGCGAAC")
"condition met"
>>> category_label("CCTACTGGGTCACGAAAGGTCATTGATTCAGTGA")
"condition met"
>>> category_label("TCTCGGAGGAAACGAAAGGTCAGAGCTCGACATC")
"condition met"
>>> category_label("ATCGAAAGGTCTAAGGTGAGTATACCCACCCGAA")
"condition not met"
>>> category_label("ATATGTAGGTTGGGGTCATTCAGAAAGTAGGGAA")
"condition met"
>>> category_label("TTACCAAGGTGAAAGGTCGTTGCTGCACGCCTTG")
"condition met"
>>> category_label("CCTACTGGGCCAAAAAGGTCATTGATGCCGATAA")
"condition met"

Please tell me: is the sequence TACCCTAGGTCATTGGGCCAGTATAGTACGCATC at or over 3 in terms of PBM binding z-score?
condition met

Please tell me: is the sequence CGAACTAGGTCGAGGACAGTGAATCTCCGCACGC at or over 3 in terms of PBM binding z-score?
condition not met

Please tell me: is the sequence CTATGTAGGTTAGGGGGGTCATTCAGTTTGAAAG at or over 3 in terms of PBM binding z-score?
condition met

Please tell me: is the sequence TAGCCTAGGTCATTCAGGGGCCACTATAGAAAGC at or over 3 in terms of PBM binding z-score?
condition met

Please tell me: is the sequence ACTTACGGCTCAACGAGGTTATAGCACGCGTATA at or over 3 in terms of PBM binding z-score?
condition not met

Please tell me: is the sequence AGTCAAAGTTTATCTAGGTAACGTAAGATATGCT at or over 3 in terms of PBM binding z-score?
condition not met

Please tell me: is the sequence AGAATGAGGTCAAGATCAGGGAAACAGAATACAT at or over 3 in terms of PBM binding z-score?
condition met

Please tell me: is the sequence CAAAATAGGTCACGAAAGGTCAAAGTCGAATGAC at or over 3 in terms of PBM binding z-score?
condition met

Please tell me: is the sequence CGTCAAAGATCAAGGTAACGTAACAGAAAGCAGC at or over 3 in terms of PBM binding z-score?
condition not met
